Molecular target: PA3973-His6 (Pseudomonas aeruginosa PAO1161) (UniProt Q9HX43)
Sequence: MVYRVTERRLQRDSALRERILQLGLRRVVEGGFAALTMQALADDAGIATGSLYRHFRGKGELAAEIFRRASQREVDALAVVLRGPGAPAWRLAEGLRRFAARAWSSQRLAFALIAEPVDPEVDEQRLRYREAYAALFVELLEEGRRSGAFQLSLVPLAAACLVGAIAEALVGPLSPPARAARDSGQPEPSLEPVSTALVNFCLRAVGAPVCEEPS
Assay: EMSA
Conditions: 10 mM Tris-HCl pH 8.5, 10 mM MgCl2, 100 mM KCl, 0.1 mg/mL BSA; ~100 ng DNA plus ~300 ng NS competitor in 20 uL; 23 C, 30 min; 1.5% agarose, 0.5x TBE, 4 C …
reported_metric: binding

// below: answered sequences
chain: GAGGATCCGTGGGACTCCTTGGGTCGGGCCGGTGGCGAATAGCCAGGGGGACGTCGGGCGCACAAGGTACTGCCAGAAAAACGCTAATGCAAATAATTATCAAATGGATTCAGATATGCGTTTTGTGGCAAAGTTCACCTGTTTTTGCGCGTAGCGCGACCGAACCGGATATGCCCGAGGAACCGTCGATGAGCAGCACTCCCAGCCTTTCCCATTCCCCTGCCGAGCGCATGCGAATTCGC (double strand) [PA4710p]
binding: binds more weakly

chain: GCGAATTCGCATGCCACCACGGTTGATCCATAGGCTTCGGTCCGCGCTGCGGTGGCGCGGGCGGCGCCCATGATACCGATTCCCCGGGGCGGTGGGGCGCCGCGGAAGGGACGGGCGTAGGAGATTTCATATTTCGCAATGAGGAATCTATTCCCCATTGAGGAATGTTCTGGTGGCGTGATAGCCTGAATGGAAAAGAGAGTCATTCCCATTTGGAGAAGATCCTGGATCCGC (double strand) [PA4156p]
binding: binds more weakly

chain: GAGGATCCGGGGCGGGCTCCGGAGGGTGTTCAGCTCCTAGCATAGCGCCCTCGCCTTGCGCCGTTCAGACCTTCGCGCAGCGCCCCTCGCGGCCGCGCGCCAGTTCCCTGTTGTCCTGGTCGTAGAGCTTCGCCCAGGGACGGAAGCCGATGTGCCCGGCCTCCAGGCGGTAGCGCTGGCCGGCGCTGAAGTCCTTGAACTTGAGGTTGAGCTGGCAATCGCGCCAGAGCGGGCTGTCCACGGGGCCGGCATGCGAATTCGC (double strand) [PA0061p]
binding: binds

chain: GAGAATTCGCATGCCAATGGCGGCGAGGAAAGCGCCTGCGGCTGGTGCCGTGACAAGTGGGGCATCTCCTGGCAGATCACCCCGCGCGTACTCAGCGAAGCCATCGCCAGCCCCGACCGCGCGGCGGCCAGGCGCGCCTTCGAGGCGATGATGACGATGGGCAGGATCGATATCGCCACCATAGAGAAGGCCTTCAAGGGCTGAACGCCCCAACGCCTTGCAAAGGAGTCACGAAGGATCCGC (double strand) [PA2722p]
binding: binds

chain: GCGAATTCGCATGCGGCGCTGGAGATTCCCGGCGAGGGCGCGGTGGGCATGTGCTGGCGCGACGAACCGCACCGCGACCGTGCCAGCGAAGACCTGCTGGCCTGCCTGCGCGAAGGCGCGGCGGCCGAGTAGGGCGCCGGCCGGCGGGTGCTATTGCAAAAAGGCCGCGGCTTCTCGACAATGCGATTCATTATCATTCATGTGTCGCCCCGACTTTCCCATGGGATCCGC (double strand) [PA2468p]
binding: binds more weakly

Shift focus to the following entry.
## Task I am curious: what binding value has been reported for GCGAATTCGCATGCGATGGGCGGGAATTGTTGGTCGATTTATGACTTGTAGTTTCTCTGTCGTATGCCTTCAGAACTTGTTGAAGGCTTTTCGGCTCGATTGCACAATGCCGCGCCAAGGTTCGTTCGCGAATCGCGGTATGTGAGCTAGACCTCCGCAGCCGGTGCGCCATCCGCAGTGCCCCGGACTACTCGACAATCACGCAGGAGATTCGTGAGGATCCGC (double strand) [PA0195p] ?
## Result binds

The origin of these recorded values is paper PMC9736018.
